Test system: Amaranthus retroflexus
Experiment: Post-emergence herbicidal action
Format: in vivo
Details: application rate 5 g/ha
Give measured Amaranthus retroflexus (efficacy in %) for each item. Keep answers brief.
Give bare numbers, in %.

Example cases with answers are listed next.
1) Nn1c(C(F)(F)F)cc(=O)n(-c2cc(Sc3cccnc3OCC(=O)OC3COC3)c(Cl)cc2F)c1=O [I.1-115] = 100
2) Nn1c(C(F)(F)F)cc(=O)n(-c2cc(Sc3cccnc3OCC(=O)OCc3ccccn3)c(Cl)cc2F)c1=O [I.1-286] = 100

Please report Amaranthus retroflexus (efficacy in %) for every entry that follows.
1. CCOC(=O)COc1ncc(F)cc1Sc1cc(-n2c(=O)cc(C(F)(F)F)n(N)c2=O)c(F)cc1Cl [I.31-442]
2. Nn1c(C(F)(F)F)cc(=O)n(-c2cc(Sc3cccnc3OCC(=O)O)c(Cl)cc2F)c1=O [I.1-481]
3. C=CCOC(=O)COc1ncccc1Sc1cc(-n2c(=O)cc(C(F)(F)F)n(N)c2=O)c(F)cc1Cl [I.1-471]

1. 100
2. 100
3. 100

Name the recorded Amaranthus retroflexus (efficacy in %) for N#CCOC(=O)COc1ncccc1Sc1cc(-n2c(=O)cc(C(F)(F)F)n(N)c2=O)c(F)cc1Cl [I.1-176] . 100

---

Tested on: Oryza sativa
Test: Post-emergence crop plant compatibility
Assay type: in vivo
Details: application rate 1.25 g/ha
MEASURED PARAMETER: Oryza sativa (efficacy in %)
Numbers only, in %.

1. CCOC(=O)COc1ncccc1Sc1cc(-n2c(=O)cc(C(F)(F)F)n(N)c2=O)c(F)cc1Cl = 10

Please report Oryza sativa (efficacy in %) for every entry that follows.
1. Nn1c(C(F)(F)F)cc(=O)n(-c2cc(Sc3cccnc3OCC(=O)OCc3ccccn3)c(Cl)cc2F)c1=O
2. Nn1c(C(F)(F)F)cc(=O)n(-c2cc(Sc3cccnc3OCC(=O)OCc3ccccc3)c(Cl)cc2F)c1=O

0
0

Source of measurements: patent US20220274954A1
